Data provenance is patent US10766952B2.

Molecular target: T1, human α-CGRP (Homo sapiens, UniProt P06881)
T1 construct: 1-37 (WT); purchased; host or cells: synthetic peptide
T1 sequence (P06881 83-119 limits assumed): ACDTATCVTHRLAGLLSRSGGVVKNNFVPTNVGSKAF
Assay: Biacore affinity of antibody G1 Fab and variants to human α-CGRP
Assay type: binding
Conditions: 37° C., Fab, screening mode unless underlined
Protocol: Biacore assay for affinity determination. […] All Biacore assays were conducted in HBS-EP running buffer (10 mM HEPES pH 7.4, 150 mM NaCl, 3 mM EDTA, 0.005% v/v polysorbate P20). […] High-resolution analysis of binding interactions with extremely slow offrates. […] The association rate constant (kon) was determined by injecting a 2-fold titration series (in duplicate) spanning 550 nM-1 nM for 30 seconds at 100 μL/min and allowing only a 30 second dissociation phase. […]
quantity name: α-human koff
Answer with the number, then the unit.

Name the recorded α-human koff of the item M71: G1 variant: L1 R28N,T30G; L2 L56I; H2 E54K,A57Y; HC-FW3 L99T,A100V (antibody, V domains shown) VH: EVQLVESGGGLVQPGGSLRLSCAASGFTFSNYWISWVRQAPGKGLEWVAEIRSKSDYSATHYAEAVKGRFTISRDNAKNSLYLQMNSLRAEDTAVYYCTVYFDYGLAIQNYWGQGTLVTVSS VL: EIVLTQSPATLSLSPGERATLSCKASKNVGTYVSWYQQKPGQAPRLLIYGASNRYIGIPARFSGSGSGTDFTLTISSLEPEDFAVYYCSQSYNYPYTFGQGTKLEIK in your answer.
0.00128 s⁻¹
